Entry source: patent US20260092076A1

// reported pIC50 per item
TARGET SYSTEM: NLRP3 (Homo sapiens, UniProt Q96P20)
Sequence (Q96P20 whole entry): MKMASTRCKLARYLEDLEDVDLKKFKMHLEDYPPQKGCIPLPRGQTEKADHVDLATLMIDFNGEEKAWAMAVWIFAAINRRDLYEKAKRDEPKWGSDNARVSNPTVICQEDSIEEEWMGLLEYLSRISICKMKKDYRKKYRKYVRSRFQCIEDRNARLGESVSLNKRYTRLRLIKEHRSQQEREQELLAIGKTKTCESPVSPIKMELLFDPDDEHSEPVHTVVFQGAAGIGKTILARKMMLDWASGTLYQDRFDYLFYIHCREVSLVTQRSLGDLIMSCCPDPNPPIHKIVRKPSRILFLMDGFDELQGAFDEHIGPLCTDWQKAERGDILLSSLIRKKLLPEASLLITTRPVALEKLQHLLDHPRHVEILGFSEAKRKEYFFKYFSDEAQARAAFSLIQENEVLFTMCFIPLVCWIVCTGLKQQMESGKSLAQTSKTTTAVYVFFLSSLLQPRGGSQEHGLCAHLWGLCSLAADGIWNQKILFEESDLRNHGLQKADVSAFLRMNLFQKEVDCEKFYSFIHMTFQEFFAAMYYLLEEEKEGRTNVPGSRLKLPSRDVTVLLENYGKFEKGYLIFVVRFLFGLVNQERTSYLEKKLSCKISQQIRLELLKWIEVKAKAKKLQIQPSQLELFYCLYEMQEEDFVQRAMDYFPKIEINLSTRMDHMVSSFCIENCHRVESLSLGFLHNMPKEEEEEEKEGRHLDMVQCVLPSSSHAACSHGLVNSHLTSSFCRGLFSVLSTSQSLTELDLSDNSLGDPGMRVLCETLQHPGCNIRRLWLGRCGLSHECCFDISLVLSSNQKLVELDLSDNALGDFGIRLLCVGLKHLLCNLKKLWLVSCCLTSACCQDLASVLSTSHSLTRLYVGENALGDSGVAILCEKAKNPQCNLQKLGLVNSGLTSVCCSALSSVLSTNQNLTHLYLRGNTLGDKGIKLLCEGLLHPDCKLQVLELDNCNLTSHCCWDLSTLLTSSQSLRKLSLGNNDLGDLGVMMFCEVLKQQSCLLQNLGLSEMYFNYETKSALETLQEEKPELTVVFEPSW
MEASUREMENT PROTOCOL: THP-1 cells pyroptosis assay
Assay type: cell-based
Design: Seed THP-1 cells (25,000 cells/well) containing 1.0 μg/ml LPS in 40 μl of RPMI medium; host or cells: THP-1 cells, LPS-primed, nigericin-stimulated
MEASUREMENT CONDITIONS: THP-1 cells with 1.0 μg/ml LPS, compound 3 hours, nigericin 5 μM 1 hr, resazurin readout
Interpret pIC50 as the negative base-10 log of the concentration measured in mol/L.

Q: Report its pIC50 with NLRP3 (Homo sapiens, UniProt Q96P20) as the test system: Cc1cc(Cl)cc(O)c1-c1ccc2oc(N3CCc4ccncc4C3)nc2n1
A: 7.98

---

TARGET SYSTEM: NLRP3 (Homo sapiens)
MEASUREMENT PROTOCOL: THP-1 cells pyroptosis assay
Type: cell-based
Design: Seed THP-1 cells (25,000 cells/well) containing 1.0 μg/ml LPS in 40 μl of RPMI medium; host or cells: THP-1 cells, LPS-primed, nigericin-stimulated
MEASUREMENT CONDITIONS: THP-1 cells with 1.0 μg/ml LPS, compound 3 hours, nigericin 5 μM 1 hr, resazurin readout
// reported IC50 per item
# answer = value followed by unit

Some compounds with known IC50 results, for comparison:
Cc1cc(Cl)cc(O)c1-c1ccc2oc(N3CCc4ccc(F)cc4C3)nc2n1 [Example 35]	236 nM
Cc1cc(Cl)cc(O)c1-c1ccc2oc(N3CCc4ncncc4C3)nc2n1 [Example 31]	17.9 nM

Here is the next item to consider.
Q: Entry Cc1ncc2c(n1)CCN(c1nc3nc(-c4c(C)cc(Cl)cc4O)ccc3o1)C2 [Example 11] needs its IC50 filled in; supply it.
A: 27.1 nM

---

// reported pIC50 per item
TARGET SYSTEM: NLRP3 (Homo sapiens, UniProt Q96P20)
MEASUREMENT PROTOCOL: Human whole blood IL-1β release assay
Assay type: cell-based
MEASUREMENT CONDITIONS: human whole blood with 1 μg/ml LPS, compound 3 hours, nigericin 10 μM 1 hr, IL-1β by AlphaLisa
From the text: For systemic delivery, the ability to inhibit NLRP3 when the compounds are present within the bloodstream is of great importance. […]
Interpret pIC50 as the negative base-10 log of the concentration measured in mol/L.

Q: Entry Cc1cc(Cl)cc(O)c1-c1ccc2oc(N3CCc4ccncc4C3)nc2n1 needs its pIC50 filled in; supply it.
A: 6.76

Q: Entry Cc1cc(C#N)cc(O)c1-c1ccc2oc(N3CCc4ncncc4C3)nc2n1 needs its pIC50 filled in; supply it.
A: 6.65

Q: Entry Cc1cc(C(F)F)cc(O)c1-c1ccc2oc(N3CCc4ncncc4C3)nc2n1 needs its pIC50 filled in; supply it.
A: 6.78

Q: Entry Cc1ncc2c(n1)CCN(c1nc3nc(-c4c(C)cc(Cl)cc4O)ccc3o1)C2 needs its pIC50 filled in; supply it.
A: 6.65

Q: Entry Cc1cc(Cl)cc(O)c1-c1ccc2oc(N3Cc4cc(=O)[nH]nc4C3)nc2n1 needs its pIC50 filled in; supply it.
A: 6.77

Q: Entry Cc1cc(Cl)cc(O)c1-c1ccc2oc(N3CCc4[nH]c(=O)ncc4C3)nc2n1 needs its pIC50 filled in; supply it.
A: 6.77
